Recorded values, source PubChem BioAssay AID488969.

Target: Metabotropic glutamate receptor 8 (Rattus norvegicus) (UniProt P70579)
Sequence (P70579 whole entry, looked up): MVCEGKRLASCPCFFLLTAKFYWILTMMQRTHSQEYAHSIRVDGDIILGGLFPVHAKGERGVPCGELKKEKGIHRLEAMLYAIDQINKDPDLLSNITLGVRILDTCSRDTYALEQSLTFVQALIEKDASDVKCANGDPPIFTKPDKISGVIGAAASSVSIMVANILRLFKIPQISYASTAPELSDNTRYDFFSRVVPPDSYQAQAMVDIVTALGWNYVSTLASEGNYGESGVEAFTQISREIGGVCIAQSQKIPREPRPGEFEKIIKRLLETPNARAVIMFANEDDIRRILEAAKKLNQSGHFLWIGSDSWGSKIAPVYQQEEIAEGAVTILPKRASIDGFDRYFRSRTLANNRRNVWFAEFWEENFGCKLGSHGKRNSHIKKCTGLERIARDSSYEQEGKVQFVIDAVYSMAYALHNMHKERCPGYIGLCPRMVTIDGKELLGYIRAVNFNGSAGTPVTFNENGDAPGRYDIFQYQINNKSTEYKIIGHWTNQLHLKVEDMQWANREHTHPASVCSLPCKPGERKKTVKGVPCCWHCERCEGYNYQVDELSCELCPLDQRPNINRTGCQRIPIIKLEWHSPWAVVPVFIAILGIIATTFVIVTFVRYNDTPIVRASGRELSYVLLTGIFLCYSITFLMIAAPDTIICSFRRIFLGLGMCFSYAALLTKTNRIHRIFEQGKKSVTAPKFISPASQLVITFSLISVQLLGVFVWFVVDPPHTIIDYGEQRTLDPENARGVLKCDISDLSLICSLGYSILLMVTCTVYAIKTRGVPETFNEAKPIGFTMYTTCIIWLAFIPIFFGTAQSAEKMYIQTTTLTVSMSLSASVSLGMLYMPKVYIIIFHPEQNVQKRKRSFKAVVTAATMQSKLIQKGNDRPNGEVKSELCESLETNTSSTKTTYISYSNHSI
Assay: mGluR8 Gi/Go-coupled signaling modulation – cell-based, rat, thallium flux, HTS, primary screen (AID 488969)
Settings: HEK293 rat mGluR8, GIRK (G protein-gated inwardly rectifying potassium channel) thallium flux, FluoZin2; at 10 µM; stronger effect = higher value; submaximal glutamate (EC20) added with thallium
Whole data set: some 110,000 compounds, median “z-score” near -0.1, cut for the highest 2% near 2. The entries come from a sample that favours the highest values as a whole.
Classification field: T = z-score at or over 2; F = z-score under 2.

# molecule, group
measured = [
    ("CCn1c(=N)n(CC(O)COc2cccc(C)c2)c2ccccc21 (stereo unspecified)", "F"),
]

Task item: Determine whether this molecule has z-score no lower than 2: CCCCn1c(=N)n(CC(O)COc2cccc(C)c2)c2ccccc21 (stereo unspecified)
Reply: T

Task item: Determine whether this molecule has z-score no lower than 2: COc1ccc(OCCN2CCN(C3CC(=O)N(CCC(C)C)C3=O)CC2)cc1 (stereo unspecified)
Reply: F

Task item: // inclusive: z-score at least 2? input: C=CCn1c(=N)n(CC(O)COc2ccccc2OC)c2ccccc21 (stereo unspecified)
Reply: F

Task item: Quick check, z-score >= 2? CCCn1c(=N)n(CC(O)COc2cccc(C)c2)c2ccccc21 (stereo unspecified)
Reply: T

Task item: Confirm if z-score reported for the molecule COc1ccc(Nc2ccc(S(=O)(=O)N3CCCCC3)cc2[N+](=O)[O-])cc1OC is 2 or above.
Reply: T
